# System: PC-3 [JPC-3]
# ASSAY OVERVIEW: relative viability (nuclei count vs DMSO), 5 days (fraction); higher = more cells survive
# STATED CONDITIONS: first compound 0.08 µM
relative viability strictly less than 0.8 = True. Otherwise False.

A selection of reference data follows.
Cc1cnc(-c2cnc(NCCNc3ccc(C#N)cn3)nc2-c2ccc(Cl)cc2Cl)[nH]1 + Cc1nc(NC(=O)N2CCC[C@H]2C(N)=O)sc1-c1ccnc(C(C)(C)C(F)(F)F)c1 [Alpelisib] (partner 2 µM) :: False
O=c1[nH]c2ccccc2n1C1CCN(CCCC(c2ccc(F)cc2)c2ccc(F)cc2)CC1 [Pimozide] + N=C(N)NC(=N)NCCc1ccccc1 [Phenformin] (partner 250 µM) :: True
Cc1cnc(-c2cnc(NCCNc3ccc(C#N)cn3)nc2-c2ccc(Cl)cc2Cl)[nH]1 + C[C@@H](Oc1cc(-c2cnn(C3CCNCC3)c2)cnc1N)c1c(Cl)ccc(F)c1Cl [Crizotinib] (partner 1 µM) :: False
O=c1[nH]c2ccccc2n1C1CCN(CCCC(c2ccc(F)cc2)c2ccc(F)cc2)CC1 [Pimozide] + CCNC(=O)c1noc(-c2cc(C(C)C)c(O)cc2O)c1-c1ccc(CN2CCOCC2)cc1 [Luminespib] (partner 0.01 µM) :: True
O=c1[nH]c2ccccc2n1C1CCN(CCCC(c2ccc(F)cc2)c2ccc(F)cc2)CC1 [Pimozide] + Cc1cc(Nc2cc(N3CCN(C)CC3)nc(Sc3ccc(NC(=O)C4CC4)cc3)n2)n[nH]1 [Tozasertib] (partner 0.1 µM) :: True

Shift focus to the following entry.
### Prompt For this molecule, is relative viability lower than 0.8? Cc1cnc(-c2cnc(NCCNc3ccc(C#N)cn3)nc2-c2ccc(Cl)cc2Cl)[nH]1 + CC(=O)Nc1cccc(-n2c(=O)n(C3CC3)c(=O)c3c(Nc4ccc(I)cc4F)n(C)c(=O)c(C)c32)c1 [Trametinib] (partner 0.02 µM)
### Response True

----------
# System: LC-2-ad
# ASSAY OVERVIEW: relative viability (nuclei count vs DMSO), 5 days (fraction); higher = more cells survive
# STATED CONDITIONS: first compound 500 µM
relative viability strictly less than 0.01 = Met. Otherwise Not met.

### Prompt For this compound, is relative viability lower than 0.01? O=C(O)CCCCC(CCSCc1ccccc1)SCc1ccccc1 (stereo not given) [CPI-613] + CS(=O)(=O)CCNCc1ccc(-c2ccc3ncnc(Nc4ccc(OCc5cccc(F)c5)c(Cl)c4)c3c2)o1 [Lapatinib] (partner 2 µM)
### Response Met

----------
# Test system: NCI-H596
# ASSAY OVERVIEW: relative viability (nuclei count vs DMSO), 5 days (fraction); higher = more cells survive
# STATED CONDITIONS: first compound 0.05 µM
# key: entry, value: relative viability
Answer with a number only.

// known answers, use as guide
Nc1ccn([C@@H]2O[C@H](CO)[C@@H](O)[C@@H]2O)c(=O)n1 [Cytarabine] + O=C(CCCCCCC(=O)Nc1ccccc1)NO [Vorinostat] (partner 1 µM) :: 0.502
COc1cc2nccc(Oc3ccc(NC(=O)Nc4cc(C)on4)c(Cl)c3)c2cc1OC [Tivozanib] + C[C@@H](Oc1cc(-c2cnn(C3CCNCC3)c2)cnc1N)c1c(Cl)ccc(F)c1Cl [Crizotinib] (partner 1 µM) :: 0.961
Nc1ccn([C@@H]2O[C@H](CO)[C@@H](O)[C@@H]2O)c(=O)n1 [Cytarabine] + Cc1cc(Nc2cc(N3CCN(C)CC3)nc(Sc3ccc(NC(=O)C4CC4)cc3)n2)n[nH]1 [Tozasertib] (partner 0.1 µM) :: 0.712

Continue with the next compound.
Value of relative viability reported for the compound Nc1ccn([C@@H]2O[C@H](CO)[C@@H](O)[C@@H]2O)c(=O)n1 [Cytarabine] + CC(=O)Nc1cccc(-n2c(=O)n(C3CC3)c(=O)c3c(Nc4ccc(I)cc4F)n(C)c(=O)c(C)c32)c1 [Trametinib] (partner 0.02 µM) is 0.69

Cited source: the supplement of paper PMC10307832
